# assay target: Metabotropic glutamate receptor 3 (Rattus norvegicus) (UniProt P31422)
# Sequence (P31422 whole entry, looked up): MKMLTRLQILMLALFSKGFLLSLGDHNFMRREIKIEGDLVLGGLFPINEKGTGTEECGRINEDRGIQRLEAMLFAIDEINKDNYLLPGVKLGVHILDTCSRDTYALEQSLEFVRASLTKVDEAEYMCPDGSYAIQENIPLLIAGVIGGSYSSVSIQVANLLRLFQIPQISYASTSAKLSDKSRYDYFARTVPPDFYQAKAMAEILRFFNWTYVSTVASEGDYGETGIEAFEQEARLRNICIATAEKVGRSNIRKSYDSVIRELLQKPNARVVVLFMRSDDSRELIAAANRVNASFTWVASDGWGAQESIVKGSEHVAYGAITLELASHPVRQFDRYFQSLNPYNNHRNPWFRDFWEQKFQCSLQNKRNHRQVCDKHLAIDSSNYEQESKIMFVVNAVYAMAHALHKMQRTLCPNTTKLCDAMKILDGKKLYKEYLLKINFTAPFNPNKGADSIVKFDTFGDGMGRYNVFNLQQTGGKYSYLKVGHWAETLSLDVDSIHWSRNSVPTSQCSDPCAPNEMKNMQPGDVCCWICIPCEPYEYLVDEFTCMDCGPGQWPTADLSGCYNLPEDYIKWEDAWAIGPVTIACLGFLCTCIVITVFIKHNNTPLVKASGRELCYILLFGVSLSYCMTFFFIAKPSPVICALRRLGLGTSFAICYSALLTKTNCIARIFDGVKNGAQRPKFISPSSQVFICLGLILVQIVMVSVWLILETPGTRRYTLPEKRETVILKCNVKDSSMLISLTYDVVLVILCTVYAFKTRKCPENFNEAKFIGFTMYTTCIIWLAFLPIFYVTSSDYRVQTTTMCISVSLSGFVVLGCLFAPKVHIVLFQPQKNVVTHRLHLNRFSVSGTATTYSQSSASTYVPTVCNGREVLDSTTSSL
# assay comment: inhibitors of rat mGlu3 Galpha15 signaling – TREx293 cells, calcium flux, mGlu3 NAM project, dose response (AID 651840)
# condition description: TREx293 mGlu3/Galpha15, calcium fluorescence, glutamate EC80
Results with a measured potency or affinity are listed apart. Active and inactive are the calls of the source.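 The calls were made as follows: active = mean concentration giving half inhibition of the glutamate calcium response below 30 µM; inactive = the rest.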
experimental endpoint: outcome

// known answers, use as guide
compound | experimental endpoint | result
O=C(c1ccc2cc(-c3cccc(-c4ccccc4)c3)ccc2c1)N1CCCC(CO)C1 (centres undefined) | outcome | inactive
COc1cccc(COc2ccc(C(=O)N3CC(O)C3)cc2)c1 | outcome | inactive
COc1ccc(C#Cc2ccc(C(=O)N3CCCC(O)(c4ccc(Cl)cc4)C3)cc2)cc1 (centres undefined) | outcome | inactive
COc1ccc(C#Cc2ccc(C(=O)N3CCCC(O)(c4ccccc4OC)C3)cc2)cc1 (centres undefined) | outcome | inactive
COc1ccc(C#Cc2ccc(C(=O)N3CCCC(O)(c4ccc5ccccc5c4)C3)cc2)cc1 (centres undefined) | outcome | inactive
COc1ccc(C#Cc2ccc(C(=O)N3CCCC(O)(c4cccc(F)c4)C3)cc2)cc1 (centres undefined) | outcome | inactive
COc1ccc(C#Cc2ccc(C(=O)N3CCCC(O)(c4cccc(OC)c4)C3)cc2)cc1 (centres undefined) | outcome | inactive
COc1ccc(C#Cc2ccc(C(=O)N3CCCC(O)(c4ccncc4)C3)cc2)cc1 (centres undefined) | outcome | inactive

Next:
Ask: Form field: reported outcome of COc1ccc(C#Cc2ccc(C(=O)N3CCCC(O)(CCC4OCCCO4)C3)cc2)cc1 (centres undefined)
Reply: inactive
